Ref: patent US9487483B2

target.of.assay: Recombinant human factor D (Homo sapiens (Human), UniProt P00746)
Sequence (P00746 26-253): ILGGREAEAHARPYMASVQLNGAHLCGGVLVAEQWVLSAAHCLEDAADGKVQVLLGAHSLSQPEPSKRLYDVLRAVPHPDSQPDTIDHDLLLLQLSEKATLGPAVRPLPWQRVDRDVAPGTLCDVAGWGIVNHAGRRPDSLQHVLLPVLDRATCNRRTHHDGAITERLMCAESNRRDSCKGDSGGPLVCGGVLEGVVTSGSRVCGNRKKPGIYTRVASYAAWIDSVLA
assay: biochemical
Format: biochemical
test.settings: Factor D inhibition data using Method 1; substrate Z-Lys-thiobenzyl, fluorescence readout; read-out: IC50
Each item that follows carries a reported pIC50.
Remember the convention: pIC50 equals -log10 of concentration in molar.

Some solved entries appear below for comparison.
INSERT INTO assay_data (molecule, val) VALUES
  ('CC(=O)c1nn(CC(=O)N2[C@@H]3C[C@@H]3C[C@H]2C(=O)N[C@@H]2C[C@@H]2F)c2ncccc12', 5.29),
  ('CC1(C)C[C@H](O)C[C@@H](NC(=O)[C@@H]2C[C@H]3C[C@H]3N2C(=O)Cn2nc(C(N)=O)c3ccccc32)C1', 5.65),
  ('NC(=O)c1nn(CC(=O)N2[C@@H]3C[C@@H]3C[C@H]2C(=O)N[C@@H]2CCC[C@H](C(F)(F)F)C2)c2ccccc12', 7.54),
  ('CC(=O)c1nn(CC(=O)N2[C@@H]3C[C@@H]3C[C@H]2C(=O)NC2CCC(F)(F)CC2)c2cnccc12', 5.52),
  ('CC[C@H]1CCC[C@@H](NC(=O)[C@@H]2C[C@H]3C[C@H]3N2C(=O)Cn2nc(C(N)=O)c3ccncc32)C1', 7.54);

Query: Return the recorded pIC50 value; entry: NC(=O)c1nn(CC(=O)N2[C@@H]3C[C@@H]3C[C@H]2C(=O)NC2CCC(F)(F)C2)c2ccccc12 (stereo partly shown)
Reply: 6.00

Query: Return the recorded pIC50 value; entry: CC1(C)C[C@@H](O)C[C@H](NC(=O)[C@@H]2C[C@H]3C[C@H]3N2C(=O)Cn2nc(C(N)=O)c3ccccc32)C1
Reply: 7.55
